molecular target: GI.3 Protruding (norovirus GI.3); experiment: ELISA
pEC50: −log10 of the molar value.

| binder | pEC50 |
| --- | --- |
| 323A (antibody, V domains shown) VH: QVQLVESGGGVVQPGRSLRLSCAASGFTFSGSSLHWVRQAPGKGLEWVAAISYDGTNTYYADSVKGRFTLSRDNSKNTLYLQMNSLRAEDTAVYYCAKPVLSPFDYWGQGTLVTVSS VL: QSALTQPASVSGSPGQSITISCTGTSSDVGGYNYVSWYQQHPGKAPKLLIYEVSNRPSGVSRRFSGSKSGNTASLTISGLQAEDEADYYCCSYTSSSTEVFGGGTKLTVL | 8.15 |
| 310A (antibody, V domains shown) VH: EVQLVESGGGLVRPGESLRLSCVASGFSVSDNYMSWVRQAPGKGLQWVSVIYSGGTTFYTDSVKGRFTISRDKSKNTLFLQMNSLRAEDTAVYFCTRDPSQYYDSRGHYYQTFTPSFDSWGQGTLVTVSS VL: DIQMTQSPSVMSASVGDRVTITCRASQDISDYLAWFQQKPGKVPKRLIYAASSLQNGVPSRFSGSGSGTEFTLTISSLQPEDFATYYCLQHDTYPLTFGGGTKVEIK | 7.22 |
| 168.2 (antibody, V domains shown) VH: QVQLVESGGGVVQPGRSLRLSCAASGFTFSSYAMHWVRQAPGKGLEWVAVISYDGSNKYYADSVKGRFTISRDNSKNTLYLQMNSLRAEDTAVYYCARSVIGYYYYGMDVWGQGTLVTVSS VL: QPVLTQPPSASASLGASVTLTCTLSSGYSNYKVDWYQQRPGKGPRFVMRVGTGGIVGSKGDGIPDRFSVLGSGLNRYLTIKNIQEEDESDYHCGADHGSGILFGGGTKLTVL | 6.84 |
| 178.6 (antibody, V domains shown) VH: QVQLVESGGGVVQPGRSLRLSCAASGFTFSTYGMNWVRQAPGRGLEWVADISYDGSNSRYADSVKGRFTISRDNSKNTLSLQMNGLRTEDTAVYYCAKDWYLAMAGAAFDSWGPGTLVTVSS VL: SSELTQDPVVSVALGQTVRITCQGDSLTTFYASWFQQKPGQAPALVLYGNDNRPSGIPDRFSGSRSGNTASLTITGAQAEDEADYYCNSRDSSGKPSFGGGTKLTVL | 6.47 |
